experimentalProtocol: cn = amount concentration of the nth substance listed, in mol/dm3
conditionParameters: 313.15 K; 101.3 kPa; Liquid; Vibrating tube method; c1 = 3.5
quantityKind: mass density (kg/m3)

For record [Cl-].[Na+] [sodium chloride] + O the listed mass density is 1114.84

For record [Cl-].[K+] [potassium chloride] + O the listed mass density is 1136.18

For record CC(=O)[O-].[K+] [potassium ethanoate] + O the listed mass density is 1139.19

For record [Br-].[K+] [potassium bromide] + O the listed mass density is 1267.53

###

experimentalProtocol: cn = amount concentration of the nth substance listed, in mol/dm3
conditionParameters: 313.15 K; 101.3 kPa; Liquid; Vibrating tube method; c1 = 2
quantityKind: mass density (kg/m3)

For record [Br-].[K+] [potassium bromide] + O the listed mass density is 1152.65

For record [Cl-].[Na+] [sodium chloride] + O the listed mass density is 1066.6

For record CC(=O)[O-].[K+] [potassium ethanoate] + O the listed mass density is 1079.44

For record [Cl-].[K+] [potassium chloride] + O the listed mass density is 1073.77

###

experimentalProtocol: cn = amount concentration of the nth substance listed, in mol/dm3
conditionParameters: 313.15 K; 101.3 kPa; Liquid; Vibrating tube method; c1 = 1
quantityKind: mass density (kg/m3)

For record [Cl-].[Na+] [sodium chloride] + O the listed mass density is 1029.13

For record [Cl-].[K+] [potassium chloride] + O the listed mass density is 1035.01

For record [Br-].[K+] [potassium bromide] + O the listed mass density is 1072.09

For record CC(=O)[O-].[K+] [potassium ethanoate] + O the listed mass density is 1035.88

###

experimentalProtocol: cn = amount concentration of the nth substance listed, in mol/dm3
conditionParameters: 323.15 K; 101.3 kPa; Liquid; Vibrating tube method; c1 = 2.5
quantityKind: mass density (kg/m3)

For record CC(=O)[O-].[K+] [potassium ethanoate] + O the listed mass density is 1095.05

For record [Cl-].[K+] [potassium chloride] + O the listed mass density is 1090.34

For record [Cl-].[Na+] [sodium chloride] + O the listed mass density is 1074.62

For record [Br-].[K+] [potassium bromide] + O the listed mass density is 1182.53

###

experimentalProtocol: cn = amount concentration of the nth substance listed, in mol/dm3
conditionParameters: 318.15 K; 101.3 kPa; Liquid; Vibrating tube method; c1 = 2.5
quantityKind: mass density (kg/m3)

For record CC(=O)[O-].[K+] [potassium ethanoate] + O the listed mass density is 1097.66

For record [Cl-].[K+] [potassium chloride] + O the listed mass density is 1092.9

For record [Cl-].[Na+] [sodium chloride] + O the listed mass density is 1077.28

For record [Br-].[K+] [potassium bromide] + O the listed mass density is 1186.74

###

experimentalProtocol: cn = amount concentration of the nth substance listed, in mol/dm3
conditionParameters: 303.15 K; 101.3 kPa; Liquid; Vibrating tube method; c1 = 3
quantityKind: mass density (kg/m3)

For record CC(=O)[O-].[K+] [potassium ethanoate] + O the listed mass density is 1125.37

For record [Cl-].[Na+] [sodium chloride] + O the listed mass density is 1107.87

For record [Br-].[K+] [potassium bromide] + O the listed mass density is 1236.89

For record [Cl-].[K+] [potassium chloride] + O the listed mass density is 1122.78

###

experimentalProtocol: cn = amount concentration of the nth substance listed, in mol/dm3
conditionParameters: 318.15 K; 101.3 kPa; Liquid; Vibrating tube method; c1 = 4
quantityKind: mass density (kg/m3)

For record CC(=O)[O-].[K+] [potassium ethanoate] + O the listed mass density is 1158.26

For record [Cl-].[Na+] [sodium chloride] + O the listed mass density is 1135.7

For record [Cl-].[K+] [potassium chloride] + O the listed mass density is 1156.76

For record [Br-].[K+] [potassium bromide] + O the listed mass density is 1308.52

###

experimentalProtocol: cn = amount concentration of the nth substance listed, in mol/dm3
conditionParameters: 308.15 K; 101.3 kPa; Liquid; Vibrating tube method; c1 = 2
quantityKind: mass density (kg/m3)

For record CC(=O)[O-].[K+] [potassium ethanoate] + O the listed mass density is 1083.09

For record [Cl-].[K+] [potassium chloride] + O the listed mass density is 1077.43

For record [Br-].[K+] [potassium bromide] + O the listed mass density is 1156.73

For record [Cl-].[Na+] [sodium chloride] + O the listed mass density is 1070.4

###

experimentalProtocol: cn = amount concentration of the nth substance listed, in mol/dm3
conditionParameters: 323.15 K; 101.3 kPa; Liquid; Vibrating tube method; c1 = 4
quantityKind: mass density (kg/m3)

For record [Br-].[K+] [potassium bromide] + O the listed mass density is 1305.31

For record [Cl-].[Na+] [sodium chloride] + O the listed mass density is 1132.89

For record [Cl-].[K+] [potassium chloride] + O the listed mass density is 1154.1

For record CC(=O)[O-].[K+] [potassium ethanoate] + O the listed mass density is 1155.47

###

experimentalProtocol: cn = amount concentration of the nth substance listed, in mol/dm3
conditionParameters: 318.15 K; 101.3 kPa; Liquid; Vibrating tube method; c1 = 2
quantityKind: mass density (kg/m3)

For record [Cl-].[K+] [potassium chloride] + O the listed mass density is 1071.35

For record [Cl-].[Na+] [sodium chloride] + O the listed mass density is 1064.11

For record CC(=O)[O-].[K+] [potassium ethanoate] + O the listed mass density is 1077.01

For record [Br-].[K+] [potassium bromide] + O the listed mass density is 1149.76

###

experimentalProtocol: cn = amount concentration of the nth substance listed, in mol/dm3
conditionParameters: 313.15 K; 101.3 kPa; Liquid; Vibrating tube method; c1 = 3
quantityKind: mass density (kg/m3)

For record [Cl-].[Na+] [sodium chloride] + O the listed mass density is 1100.67

For record CC(=O)[O-].[K+] [potassium ethanoate] + O the listed mass density is 1118.3

For record [Cl-].[K+] [potassium chloride] + O the listed mass density is 1115.79

For record [Br-].[K+] [potassium bromide] + O the listed mass density is 1229.2

###

experimentalProtocol: cn = amount concentration of the nth substance listed, in mol/dm3
conditionParameters: 298.15 K; 101.3 kPa; Liquid; Vibrating tube method; c1 = 3.5
quantityKind: mass density (kg/m3)

For record [Cl-].[K+] [potassium chloride] + O the listed mass density is 1145.56

For record [Br-].[K+] [potassium bromide] + O the listed mass density is 1279.04

For record CC(=O)[O-].[K+] [potassium ethanoate] + O the listed mass density is 1148.72

For record [Cl-].[Na+] [sodium chloride] + O the listed mass density is 1124.82

###

experimentalProtocol: cn = amount concentration of the nth substance listed, in mol/dm3
conditionParameters: 323.15 K; 101.3 kPa; Liquid; Vibrating tube method; c1 = 1
quantityKind: mass density (kg/m3)

For record [Cl-].[K+] [potassium chloride] + O the listed mass density is 1030.24

For record CC(=O)[O-].[K+] [potassium ethanoate] + O the listed mass density is 1030.82

For record [Br-].[K+] [potassium bromide] + O the listed mass density is 1063.02

For record [Cl-].[Na+] [sodium chloride] + O the listed mass density is 1023.15

###

experimentalProtocol: cn = amount concentration of the nth substance listed, in mol/dm3
conditionParameters: 313.15 K; 101.3 kPa; Liquid; Vibrating tube method; c1 = 4
quantityKind: mass density (kg/m3)

For record [Cl-].[K+] [potassium chloride] + O the listed mass density is 1159.35

For record CC(=O)[O-].[K+] [potassium ethanoate] + O the listed mass density is 1160.96

For record [Br-].[K+] [potassium bromide] + O the listed mass density is 1311.63

For record [Cl-].[Na+] [sodium chloride] + O the listed mass density is 1138.45

###

experimentalProtocol: cn = amount concentration of the nth substance listed, in mol/dm3
conditionParameters: 308.15 K; 101.3 kPa; Liquid; Vibrating tube method; c1 = 1.5
quantityKind: mass density (kg/m3)

For record [Br-].[K+] [potassium bromide] + O the listed mass density is 1114.62

For record [Cl-].[K+] [potassium chloride] + O the listed mass density is 1055.31

For record CC(=O)[O-].[K+] [potassium ethanoate] + O the listed mass density is 1062.94

For record [Cl-].[Na+] [sodium chloride] + O the listed mass density is 1053.06
